Test: Antiplatelet activity in guinea pig platelet rich plasma assessed as inhibition of ADP-induced aggregation by aggregometry
Assay type: functional, cell-free
Details: Cavia porcellus
quantity_kind: IC50 (µM)
Give bare numbers, in µM.

GET /values?readout=IC50&item= CCNC(=O)c1c(NC(C)C)c2cccnc2n2c(C(C)C)nnc12
281

Reference for the values: ChEMBL document CHEMBL3352067
